# credit: PubChem BioAssay (NCI)

Tested on: OVCAR-5 ovarian
TEST DESCRIPTION: NCI-60 one-dose screen, 48 h (100 = growth as untreated, 0 = no growth, -100 = all killed)
MEASUREMENT PARAMETERS: 10 µM unless noted
This is part of a sample that, as a whole, favours compounds with a hit. Of some 83,000 tested, about 20% had one in any assay.

{"COMPOUND": "O=[N+]([O-])c1ccc(-c2ncc(-c3ccc(O)cc3O)[nH]2)cc1", "RESULT UNITS": "%", "growth": 125}
{"COMPOUND": "Oc1ccccc1/C=N/N=C\\c1ccccc1Cl", "RESULT UNITS": "%", "growth": 115}
{"COMPOUND": "CCOC(=O)/C(C#N)=C(/CC)OCC", "RESULT UNITS": "%", "growth": 106}
{"COMPOUND": "COc1ccc(OC)c(Cn2cc3c(c2-c2ccccc2)CCc2cnoc2-3)c1", "RESULT UNITS": "%", "growth": 90.8}
{"COMPOUND": "CCC(C)(C)c1ccc(OCCCCCCN2CCN(c3ccc(C)c(Cl)c3)CC2)cc1", "RESULT UNITS": "%", "growth": 97.6}
{"COMPOUND": "O=C(OCC1CC2(Cl)C(Cl)=C(Cl)C1(Cl)C2(Cl)Cl)C1C(C(=O)OCC2CC3(Cl)C(Cl)=C(Cl)C2(Cl)C3(Cl)Cl)C2(Cl)C(Cl)=C(Cl)C1(Cl)C2(Cl)Cl (stereo unspecified)", "RESULT UNITS": "%", "growth": 105}
{"COMPOUND": "Cc1ccccc1-n1c(C)nc2cc(NC(=O)c3ccc(Cl)cc3)ccc2c1=O", "RESULT UNITS": "%", "growth": 75.9}
{"COMPOUND": "Cn1c2c(cc(S(=O)(=O)c3ccccc3)c1=O)CCc1c-2cnn1-c1ccc(Cl)cc1", "RESULT UNITS": "%", "growth": 26.2}
{"COMPOUND": "CCOC(=O)NC1=NCC(C)(C)S1", "RESULT UNITS": "%", "growth": 98.9}
{"COMPOUND": "Oc1ccc(Br)cc1/C=N/NC(=S)NC12CC3CC(CC(C3)C1)C2", "RESULT UNITS": "%", "growth": 46.9}
{"COMPOUND": "COc1ccc2c(c1)/C(=C1/S/C(=N/c3nnc(C)s3)NC1=O)C(=O)N2Cc1ccc(Br)cc1", "RESULT UNITS": "%", "growth": 74.5}
{"COMPOUND": "O=C1CCNC1", "RESULT UNITS": "%", "growth": 105}
{"COMPOUND": "O=C(N/N=C/c1cc(Cl)ccc1O)C(=O)N/N=C/c1cc(Cl)ccc1O", "RESULT UNITS": "%", "growth": 72.5}
{"COMPOUND": "C/C(=N\\Nc1ccc(Cl)cn1)c1ccc2ccccc2n1", "RESULT UNITS": "%", "growth": 29.9}
{"COMPOUND": "COc1cc2ncnc(-n3ncc4cc(NC(=O)Nc5ccc(Cl)c(C)c5)ccc43)c2cc1OC", "RESULT UNITS": "%", "growth": 109}
{"COMPOUND": "CCCCCCNc1nc(N2CCOCC2)c2[nH]c(NCCCCCC)nc2n1", "RESULT UNITS": "%", "growth": -92}
{"COMPOUND": "Nc1cc(N)c2nc(-c3ccccc3)c(NCCc3ccc(Cl)c(Cl)c3)nc2c1", "RESULT UNITS": "%", "growth": -76.9}
{"COMPOUND": "CNc1ccc(Nc2ccc(S(=O)(=O)O)cc2)c2c1C(=O)c1ccccc1C2=O", "RESULT UNITS": "%", "growth": 98.7}
{"COMPOUND": "O=C(Cc1ccccc1[N+](=O)[O-])c1ccc2c(c1)OCO2", "RESULT UNITS": "%", "growth": 104}
{"COMPOUND": "CCCCCCNC(=O)Oc1ccc(/C(=C(/C)Cc2ccc(OC)cc2)c2ccc(OCCN3CCCCC3)cc2)cc1", "RESULT UNITS": "%", "growth": 90.5}
{"COMPOUND": "OCCN1CCN(CC/C=C2/c3ccccc3Sc3ccc(C(F)(F)F)cc32)CC1", "RESULT UNITS": "%", "growth": 82.4}
{"COMPOUND": "COc1ccc(Oc2[nH]n(C3=Nc4ccccc4Sc4ccccc43)c(=O)c2C#N)cc1", "RESULT UNITS": "%", "growth": 116}
{"COMPOUND": "C=CCSc1nnc(COc2ccc3c(C)c(Cc4ccccc4)c(=O)oc3c2C)o1", "RESULT UNITS": "%", "growth": 104}
{"COMPOUND": "O=C(CBr)OCc1ccc([N+](=O)[O-])o1", "RESULT UNITS": "%", "growth": 101}
{"COMPOUND": "Clc1ccc(N/N=C(/c2ccccc2)c2ccccn2)nc1", "RESULT UNITS": "%", "growth": 49.3}
{"COMPOUND": "Cc1ccc([C@@H]2C[C@H](O)Cc3ccccc3N2)s1", "RESULT UNITS": "%", "growth": 97.7}
{"COMPOUND": "COC(=O)C(C)[C@H]1CC[C@@H]2[C@]1(C)CC=C1[C@]23C=C[C@]2(C[C@@H](OC(C)=O)CC[C@]12C)C(C(=O)OC)C3C(=O)OC (stereo partly specified)", "RESULT UNITS": "%", "growth": 109}
{"COMPOUND": "CCOC(=O)C1CCCN1C(=O)C1(NC(C)=O)CCCC1 (stereo unspecified)", "RESULT UNITS": "%", "growth": 96.4}
{"COMPOUND": "O=C(N/N=C/c1ccccc1Cl)c1cccc2ccccc12", "RESULT UNITS": "%", "growth": 104}
{"COMPOUND": "Cc1ncc(C(=O)Nc2ccc(CN3CCN(C)CC3)c(C(F)(F)F)c2)cc1C#Cc1c(N)ncc2ccc(F)cc12", "RESULT UNITS": "%", "growth": -45.3}
{"COMPOUND": "O=C1N/C(=N\\c2nnc(-c3ccc(O)cc3)s2)S/C1=C\\c1ccccc1O", "RESULT UNITS": "%", "growth": 93.7}
